testDescription: Pharmacokinetic test - mice
Format: in vivo, Balb/c mice
condition: mouse, 3 mg/kg; Mice PK, IV, 3 mpk, single injection, plasma
measureName: half-life (h)
Numbers only, in h.

Name the recorded half-life of the item `[2H]C1([2H])OC(=O)[C@](O)(CC)c2cc3n(c(=O)c21)Cc1c-3nc2cc(F)c(C)c3c2c1[C@@H](N)CC3` in your answer.
1.19

###

For each of the compounds below, state its AUC(0-inf).
testDescription: Pharmacokinetic test - rats
Parameters: species or system SD rats
condition: in vivo, 3 mg/kg; Rat PK, IV, 3 mpk, single injection, plasma
Numbers only, in ng·h/mL.

Count: 2. Required value per item: AUC(0-inf).
1. [2H]C1([2H])OC(=O)[C@](O)(CC)c2cc3n(c(=O)c21)Cc1c-3nc2ccc(O)cc2c1CC [Compound A-9]
2. [2H]C1([2H])OC(=O)[C@](O)(CC)c2cc3n(c(=O)c21)Cc1c-3nc2cc(F)c(C)c3c2c1[C@@H](N)CC3 [Compound A-11]

1. 99.5
2. 135

###

Test system: NCI-N87 cells
testDescription: Inhibitory activity on NCI-N87 cells (MTT)
Assay type: cell-based, human
condition: Homo sapiens; NCI-N87 cells, 72 h, MTT, n=3; read-out: NCI-N87 IC50
pIC50: −log10 of the molar value.
measureName: pIC50

Give reported pIC50 value for [2H]C1([2H])OC(=O)[C@](O)(CC)c2cc3n(c(=O)c21)Cc1c-3nc2cc(F)c(C)c3c2c1[C@@H](N)CC3 [Compound A-11]
> 8.00

###

Would you kindly list Vd for each of these compounds?
testDescription: Pharmacokinetic test - rats
Set-up: species or system SD rats
condition: in vivo, 3 mg/kg; Rat PK, IV, 3 mpk, single injection, plasma; read-out: Vz
Numbers only, in L/kg.

[2H]C1([2H])OC(=O)[C@](O)(CC)c2cc3n(c(=O)c21)Cc1c-3nc2cc(F)c(C)c3c2c1[C@@H](N)CC3; 30.1

Let us move to another entry and its Vd.
Give the value of Vd reported for the following: `[2H]C1([2H])OC(=O)[C@](O)(CC)c2cc3n(c(=O)c21)Cc1c-3nc2ccc(O)cc2c1CC`
19.5

###

testDescription: Pharmacokinetic test - mice
Type: in vivo, Balb/c mice
condition: mouse, 3 mg/kg; Mice PK, IV, 3 mpk, single injection, plasma
measureName: clearance
Include the unit after the number when you answer.

Quick one: give measured clearance for `[2H]C1([2H])OC(=O)[C@](O)(CC)c2cc3n(c(=O)c21)Cc1c-3nc2cc(F)c(C)c3c2c1[C@@H](N)CC3`
156 mL/min/kg
